- Tested on: T-47D breast
- method: NCI tumour cell line growth inhibition, 48 h
recorded-endpoint: TGI (µM)
Dear colleague, please return just the value in µM, with no unit written.

molecule	unit-symbol	TGI
Cc1ccccc1NC(=O)NC(CC(N)=O)c1ccc2c(c1)nc(-c1cccc(Oc3ccc(C(C)(C)C)cc3)c1)n2CCCN1CCCCC1C (stereo not drawn)	µM	10.5
Fc1ccc(Nc2nc(Nc3ccc(-c4nc5ccccc5[nH]4)cc3)nc(N3CCCC3)n2)cc1	µM	5.58
CC1OC(OC2C(CO)OC(O[C@H]3CC[C@@]4(C)C(=CC[C@H]5[C@@H]6C[C@@H]7O[C@](O)(CC[C@@H](C)COC8OC(CO)C(O)C(O)C8O)[C@@H](C)[C@@H]7[C@@]6(C)CC[C@@H]54)C3)C(OC3OC(C)C(O)C(O)C3O)C2O)C(O)C(O)C1O (stereo partly drawn)	µM	17.9

Prompt: I'm curious: which TGI was measured for `COC(=O)c1oc2c(C(=O)/C=C/c3ccc(OC)cc3)c(OCCCN3CCCCC3)ccc2c1C` tested on T-47D breast?
Completion: 4.89

Prompt: Query for T-47D breast: what TGI does the record show for COc1ccc(C(=O)Nc2cccc(C3CC(=O)c4c(cc(OC)c(OC)c4OC)O3)c2)cc1 (stereo not drawn) ?
Completion: 8.1

* * *

- System: SR leukemia
- method: NCI tumour cell line growth inhibition, 48 h
recorded-endpoint: TGI

The cases that follow already have their TGI on record.
compound	TGI
CC(=O)OCc1ccc(-c2nc(C#N)c(N)o2)o1	> 10 µM
Cn1c2ccccc2n2c(=O)c(-c3ccc(O)cc3)nnc12	> 100 µM
CC(C)(C)[Si](C)(C)OCC1OC(n2ccc(=O)[nH]c2=O)C(O[Si](C)(C)C(C)(C)C)/C1=N/O (stereo not drawn)	7.28 µM
Cc1ccc(/C=C(\C#N)n2nnc3cc(F)c(F)cc32)cc1	13.9 µM
N#C/C(=C/N1CCN(C(=O)c2ccco2)C1=S)C(N)=O	> 100 µM

Prompt: Requested read-out TGI, target or system SR leukemia, entry C=C1C(=O)O[C@H]2C1C[C@@H](O)[C@@]1(C)OC1CC[C@@]1(C)O[C@H]21 (stereo partly drawn)
Completion: 39.8 µM

Prompt: What value of TGI on SR leukemia does `CCCCCCc1cc(C=O)sc1-c1ccc(-c2sc(-c3ccc(-c4ccc(-c5cc(CCCCCC)c(-c6ccc(-c7sc(C=O)cc7CCCCCC)s6)s5)s4)s3)cc2CCCCCC)s1` have?
Completion: > 100 µM

* * *

- Tested on: SK-OV-3 ovarian
- method: NCI tumour cell line growth inhibition, 48 h
recorded-endpoint: TGI

Check out these entries, answers already filled in.
molecule	TGI
CC(C)(C)[C@@H]1NC(=O)CN1C(=O)OCc1ccccc1	> 100 µM
C=C1C(=O)O[C@H]2[C@H]1CC/C(COC(=O)CCC(=O)OC/C1=C/CC[C@@]3(C)O[C@H]3[C@H]3OC(=O)C(=C)[C@@H]3CC1)=C\CC[C@@]1(C)O[C@@H]21	84.8 µM
CCN(CC)P1(=S)Oc2ccc3ccccc3c2-c2c(ccc3ccccc23)O1	> 100 µM
CCCCCOP(=O)(OCCCCC)C(NC(C)=O)(C(=O)OCC)C(F)(F)F (configuration not stated)	> 100 µM
CC(C)[C@]12O[C@H]1[C@@H]1O[C@]13[C@]1(O[C@H]1C[C@H]1c4c(C(=O)c5ccccc5)oc(OC(=O)c5ccccc5)c4CC[C@@]13C)[C@@H]2O	> 100 µM

Prompt: Which TGI is listed for CCOC1NC(=O)Oc2ccccc21 (configuration not stated) ?
Completion: > 100 µM

Prompt: Name the reported TGI value associated with the molecule `Cc1cn2c(/C=C3/C(=O)Nc4ccccc43)c(-c3ccccc3)nc2s1`
Completion: 76.4 µM

Prompt: I have this molecule here, `CN(C)CCn1cc(-c2ccc3c(Nc4ccc(CC(=O)Nc5cccc(F)c5)cc4)ncnc3c2)cn1` , and I need its recorded TGI.
Completion: > 10 µM

Prompt: Endpoint output: TGI of CC(C)(C)[Si](C)(C)OCC1OC(n2ccc(=O)[nH]c2=O)C(O[Si](C)(C)C(C)(C)C)/C1=N/O (configuration not stated) . Value?
Completion: 26 µM

Prompt: Name the recorded TGI for `Cc1c2c(nn1-c1ccc(S/N=C3\SCC(=O)CN3c3ccccc3)cc1)-c1ccccc1CC2` .
Completion: > 50 µM

Prompt: // returns reported TGI for input `COc1ccc(-n2c(N)c(C(=O)NCCN3CCOCC3)c3nc4ccccc4nc32)cc1OC`
Completion: > 100 µM

Prompt: Look up TGI: `C[Si](C)(C)C#C[I+]c1ccccc1`
Completion: > 100 µM

Prompt: I would be grateful if you could share the reported TGI for `O=Cc1ccc(C(F)(F)F)cc1.[C-]#[O+].[C-]#[O+].[C-]#[O+].[Cr]` .
Completion: > 100 µM
